IC50 values for Lysine-specific demethylase 5B (Homo sapiens), compiled from several publications.

Example entries and their recorded answers appear below.
COMPOUND	RECORDED METRIC	RESULT
O=C(O)c1ccnc(-n2nccc2-c2ccc(Br)cc2)c1	IC50	100 to 1000 nM
Cn1cnc(-c2nccc3c(O)nc(Oc4ccc5cnn(C)c5c4)nc23)c1	IC50	≤ 100 nM
O=C(O)c1ccncc1NCc1ccccc1O	IC50	≤ 100 nM
CC(C)C[C@H](NCc1cc(C(=O)O)ccn1)C1CCCO1 (stereo partly shown)	IC50	< 250 nM
CN(CCn1cnc(-c2cc(C(=O)O)ccn2)c1)c1ccc(Cl)cc1	IC50	≤ 100 nM
Cn1nc(Nc2cnccc2C(=O)O)c2cc(F)ccc21	IC50	< 100 nM
O=C(O)c1ccnc(-n2nccc2-c2ccc(F)cc2)c1	IC50	100 to 1000 nM
O=C(O)c1c(NCc2ccc(F)cc2Cl)ccc2nccn12	IC50	≤ 500 nM
Cc1ccc(F)c(CNc2ccc3nccn3c2C(=O)O)c1Cl	IC50	> 1000 nM
O=C(O)c1ccnc(-c2cn(CCN3CCCc4cc(F)ccc43)cn2)c1	IC50	≤ 100 nM

[in] Notebook entry, Lysine-specific demethylase 5B (Homo sapiens) assay: IC50 of CN(CCn1cnc(-c2cc(C(=O)O)ccn2)c1)c1ccccc1 = ?
[out] ≤ 100 nM

[in] Notebook entry, Lysine-specific demethylase 5B (Homo sapiens) assay: IC50 of O=C(O)c1c(NCc2cc(F)cc(F)c2)ccc2nccn12 = ?
[out] > 1000 nM
